System: SEM cells
assay: cell viability relative to DMSO control; higher = less cytotoxic
conditions: HPLM + 10% dialyzed FBS; 48 h; 0.0211 µM
recorded-metric: cell viability (%)
The reply should contain only the number, in %.

[[record]]
compound = "CC1(C)O[C@@H]2C[C@H]3[C@@H]4CCC5=CC(=O)C=C[C@]5(C)[C@@]4(F)[C@@H](O)C[C@]3(C)[C@]2(C(=O)CO)O1"
measured_target = "SEM cells"
recorded_metric = "cell viability"
numeric_result = 50.6

[[record]]
compound = "O=C(OC)[C@]12CC[C@@]3(C)[C@]4(C)CC[C@H]5[C@@](C)(C)C(=O)C(=C[C@]5(C)C4=CC(=O)[C@@H]3[C@@H]2C[C@](C)(C)CC1)C#N"
measured_target = "SEM cells"
recorded_metric = "cell viability"
numeric_result = 101

[[record]]
compound = "COc1ccc(C[C@@H](C)[C@@H](C)Cc2ccc(OC)c(OC)c2)cc1OC"
measured_target = "SEM cells"
recorded_metric = "cell viability"
numeric_result = 92.7

[[record]]
compound = "C[C@]\\12CC[C@H](O)CC1=C/CC3C2CC[C@@]\\4(C)C3C\\C=C4[N]5C=NC6=C5C=CC=C6 (some centres not stated)"
measured_target = "SEM cells"
recorded_metric = "cell viability"
numeric_result = 103


In plain terms, COC1=C(N2CCNC(C)C2)C(=CC3=C1N(\C=C(C(O)=O)/C3=O)C4CC4)F (configuration not stated) has a documented cell viability of 84.2

In plain terms, CCC(C)SSc1ncc[nH]1 (configuration not stated) has a documented cell viability of 101

----------
Consider the following molecules and their measured cell viability readings.
Test system: NOMO1
assay: cell viability relative to DMSO control; higher = less cytotoxic
conditions: RPMI 5 mM glucose + 10% FBS; 48 h; 46.1 µM

In plain terms, CN1[C@@H]2CC[C@H]1CC(OC(=O)c1c[nH]c3ccccc13)C2 (some centres undefined) has a documented cell viability of 99.3%

----------
Test system: NOMO1
assay: cell viability relative to DMSO control; higher = less cytotoxic
conditions: RPMI 5 mM glucose + 10% FBS; 48 h; 0.0211 µM
Consider the following compounds and their measured cell viability readings.
The reply should contain only the number, in %.

[[record]]
compound = "COC1CCC(CC1)N(C(=O)C2CCC(C)CC2)C3=C(SC(=C3)\\C4=C\\CCCC4)C(O)=O (stereo not drawn)"
value_unit = "%"
numeric_result = 119

[[record]]
compound = "COc1cc2c(cc1OC)C1CC(=O)C(CC(C)C)CN1CC2 (stereo not drawn)"
value_unit = "%"
numeric_result = 104

[[record]]
compound = "CC\\1=C(C(\\N=C(/N1)C2=CC(=NC=C2)Cl)C3=C(F)C=C(Cl)C=C3)/C(=O)NC4=C(F)C=C5[NH]N=CC5=C4 (stereo not drawn)"
value_unit = "%"
numeric_result = 104

[[record]]
compound = "c1cncc(CN2CCC(n3ncc4c(N5CCOCC5)nc(-c5ccc6[nH]ccc6c5)nc43)CC2)c1"
value_unit = "%"
numeric_result = 92.7

[[record]]
compound = "CCC(C)SSc1ncc[nH]1 (stereo not drawn)"
value_unit = "%"
numeric_result = 98.2


In plain terms, COc1ccc(-c2cc3nccn3c(Nc3ncccc3C(N)=O)n2)cc1OC has a documented cell viability of 107

In plain terms, CC(=O)Nc1ccc(OC[C@](C)(O)C(=O)Nc2ccc([N+](=O)[O-])c(C(F)(F)F)c2)cc1 has a documented cell viability of 82.8

In plain terms, Cn1c(=O)c2c(ncn2C)n(C)c1=O.O=C(O)CC(O)(CC(=O)O)C(=O)O has a documented cell viability of 101

In plain terms, NC1(Cc2ccc(Cl)cc2)CCN(c2ncnc3[nH]ccc23)CC1 has a documented cell viability of 101

In plain terms, C/C=C(/C)C(=O)O[C@H]1C(C)=C2[C@H]([C@@H]1OC(=O)CCCCCCC)[C@@](C)(OC(C)=O)C[C@H](OC(=O)CCC)[C@@]1(O)[C@H]2OC(=O)[C@@]1(C)O has a documented cell viability of 119

In plain terms, O=NN(CCCl)C(=O)NC1CCCCC1 has a documented cell viability of 95.2

In plain terms, CC/C(=C(/c1ccc(O)cc1)c1ccc(OCCNC)cc1)c1ccccc1 has a documented cell viability of 108

In plain terms, O=C([O-])C(O)Cc1ccc(O)c(O)c1 (stereo not drawn) has a documented cell viability of 96.5

In plain terms, CC1(C)CCC[C@]2(C)[C@H]3CC(=O)O[C@]3(C)CC[C@@H]12 has a documented cell viability of 121

In plain terms, Cc1nc(NC(=O)N2CCC[C@H]2C(N)=O)sc1-c1ccnc(C(C)(C)C(F)(F)F)c1 has a documented cell viability of 82.7

In plain terms, CC(C)(C)c1cc(NC(=O)Nc2ccc(-c3cn4c(n3)sc3cc(OCCN5CCOCC5)ccc34)cc2)no1 has a documented cell viability of 88.3

In plain terms, CCCCCOC(=O)NC\1=N\C(=O)N(\C=C1F)[C@@H]2O[C@H](C)[C@@H](O)[C@H]2O has a documented cell viability of 90.8

In plain terms, COc1nccc(-c2c(-c3ccc(F)cc3)ncn2C2CCNCC2)n1 has a documented cell viability of 101
